Experiment: label from the status in PepcDB records

| sequence_entry | protein production |
| --- | --- |
| MAGDVEGFCSSIHDTSVSAGFRALYEEGLLLDVTLVIEDHQFQAHKALLATQSDYFRIMFTADMRERDQDKIHLKGLTATGFSHVLQFMYYGTIELSMNTVHEILQAAMYVQLIEVVKFCCSFLLAKICLENCAEIMRLLDDFGVNIEGVREKLDAFLLDNFVPLMSRPDFLSYLSFEKLMSYLDNDHLSRFPEIELYEAVQSWLRHDRRRWRHTDTIIQNIRFCLMTPSSVFEKVGTFESDRQDSSI | failed |
| MDRSPERRTAVMIWGALVAGPALFLVVALALPLAGEPAPGIAQPLLLVLTGLVLVEVPLSWLWAVRARLAGKAGGEAISVEEQARTRLIIAAALCEGAALFAVVVFMVTRDARALPLFAIAFGALLAHYPGDRHWARLCRGSGAGSSAPPNRLMRG | failed |
| MLKSGETNGVQSNVVRASSRMRGLAEPGIKDNQGRTWRRLIVTDCFISTKVWYSLYKGTLEATRKRVSDYISDLTMVEIIGLQAFTTDGGIAS | failed |

---

Experiment: label from the status in PepcDB records
quantity: protein production

| sequence_entry | result |
| --- | --- |
| MDGHSKNHCSPVGRYFPMPLDRRFLPGWLAFLALLAICVFPLMAKAAGVPALVGRVNDYAGMISPQARSIIDQKLKALEAEDGTQVAVLTVPSLDGQPIEEFSIKVAEAWKIGQKGRDNGILFIVSKNDRAMRIEVGYGLEGRLTDLQAGRITRDVIKPAFKSGDYDKGFIDGVDAIVASVKGEYKAPKRKNDDGAPSPFLIFIILFVLFVASRFMRFFGGGGGPFGFGGPGGGFFPGGGFGGGGGSSDDGGFSGGGGDFGGGGASDNW | failed |
| MYTIYVPGLRDPDLCNHSLMAEILCIYSSNAFEKIRKYDNLFTYVDYGNLKESELYKKRNEEESSFLYKKRILSNNIQDKKLKFDIKKEQFNYGALLFFSLNDGEFLNYISENICGNSVEVLASNNSMTTLVCGDDKGFIRILRNNPKYDDFEIKNTQMIRDVDKECCTKLFNNKIIKIDERRRNSYQTKRKKSIDKQQDLLKKAKMENFSDH | failed |

---

Assay: label from the status in PepcDB records
quantity: protein production

| sequence_entry | protein production |
| --- | --- |
| LRQSQQMLQLVMDTIPHSVFWKDRNSVFLGCNRNFAIMVGYEHPENLIGKTDYDFLPDPRNADLYRQCDARIIETNNPEYHIIEPMLAPDGQQIWLETNKVPLHDPEGNVVGVLGTFEDITERKQVQEA | failed |
| AIPQHEHPMIIAGFGRFGQIIARNARLNHIGFTAIDNNLQQIDFVRRYGGTLYYGDITQPDILRAAGIEKAKVFILAIDDVEDSMNVARHIRLNYPQITLMVRARDRYQVHLLRDLGVEHIWRETYLSSLGMAYRALCELGIP | failed |
| MSIIIPAYNEEENIKRAIKAALSQDYPVSEVIVVDDGSEDGTYERAKEIKDHRLKVLKIDHRGKAGAINEGLKIAKGSVIVTTDADSFMSKDAVRRLVERFYSDDVVAVGGQIRVIVESFMTLVQDIEHLRIAMYRRGKELENLSLAPGPLSAFRRDVLEKIGGIQRSIVEDYATTKIVKKYGRVVYAPKAKLYTRMPITLRDLWRQRKRWFLGDLQHHNLNDLLNLLLGDVIALLDVILPFIFLLEGSYLPLLAFVMFEVITMVIAVIWEGGSLIEALLFPVVLWFLALFYLSLHLYGYAVYGLKSLLRFTRS | failed |
| MKSILEQLSSITVVVADTGDLDAIKKFQPRDATTNPSLILAAAKNPDYIKLIDQALESSRKSLPAGFSESELIKETIDQVSVFFGKEILNLISGRVSTEVDARLSFDTEATVTKARKLINHYKSFGINKERILIKIASTWEGIKAAEILEKEGIKCNLTLLFNFCQAVACANAKITLISPFVGRILDWHKAKTGKDNFAGCEDPGVISVTKIYNYFKEKGFKTEVMGASFRNIDEIKELAGCDLLTIAPKFLDELNREEGELIKKLDEDTQSQSSIDYKFDEKDFRLSMLEDQMASEKLSEGITGFSKAIEELEELLLKRLSEINNQKLISTT | failed |
| MVRVPLTAEELERGQRLGELLRSARGDMSMVTVAFDAGISVETLRKIETGRIATPAFFTIAAVARVLDLSLDDVAAVVTFGPVSTS | not failed |
| AIASSAIERKSLDPSEEPVDEVLQIPPSLLTCGGCQQNIGDRYFLKAIDQYWHEDCLSCDLCGCRLGEVGRRLYYKLGRKLCRRDYLRLFGQDGLCASCDKRIRAYEMTMRVKDKVYHLECFKCAACQKHFCVGDRYLLINSDIVCEQDIYEWTKINGMI | failed |
| MKSKFLTMKLILGALVLSFSCACSSSNSEEAMPQTAIGRQLVESGMANDVTLDNESVVRDGIKLNELAFKTFGESQHIFVATIDLNELTFTPATKDDKNVPATGPESSAPLPIHAFAAEANGKTVWLGVNGDYYADNPRRVMGLFYKDGVCINSQYFEGHDEVLYQLKNGETYVGQADEALAHEANLLHALGGYGLLVKDGVVQNFYEEMGDLQNTHPRTSVGLSQDRKTMYVFVVDGRRKDSFFALGLTLPHLATMMKAVGCYNAINLDGGGSTTLIIRKVNDGGKPTFPILNTPADDRVPRKVTNSMLIIEKK | failed |
| MKLVEHYIMRGTRRLVLIIVGFLIFIFASYSAQRYLTEAANGTLALDVVLDIVFYKVLIALEMLLPVGLYVSVGVTLGQMYTDSEITAISAAGGSPGRLYKAVLYLAIPLSIFVTLLSMYGRPWAYAQIYQLEQQSQSELDVRQLRAKKFNTNDNGRMILSQTVDQDNNRLTDALIYTSTANRTRIFRAGSVDVVDPSPEKPTVMLHNGTAYLLDHQGRDDNEQIYRNLQLHLNPLDQSPNVKRKAKSVTELARSAFPADHAELQWRQSRGLTALLMALLAISLSRVKPRQGRFSTLLPLTLLFIAIFYGGDVCRTLVANGAIPLIPGLWLVPGLMLMGLLILVARDFSLLQKFSR | failed |

Count: 3. Required value per item: protein production.
1. AEIDTSSIVEMVQGAEDAPVEVIEYASYTCPHCAAFHEGPYKKLKADFIDTGKVRFIYREVYFDRYGLWASMVARCAGPEKFFGISDLIYKGQAEWSRAGGPAEIAEELRKIGRLAGIENDKLEACLGDATKAQTLVAWYQEHATRDDINSTPSFMINGKKVENQAYDGFKALIEAELGN
2. MKNEVFFGEGMKVVAAAYPDLYDIIVKLNDTVFTGKTLDYKTQKLIAIGIVASRCDEVAIEKQMKSAMKELGITKEEIADVLRVVLLTSGMPAFTKAMKILEKL
3. MATNLKSTAKLVKPIQYDEVIEVERIFADPAFIEQHRQRILASFKDAKESALYHELTHIVIKDNLFSCAMNAIVGYFEFNIDEAELKNVMEGLKRDVIQGAEDNTVQAIAEKIIKKALVFNHLQKEWKVEITDEVVKNVISLYYEKTNQSVREYLDDKQKFEGVRTALLEERMVLETINHFKFHFNLTGQLPN

Completion:
not failed
not failed
not failed
